Hello, the source for this data is patent US20240327535A1, in case you need it.

Catalogue of pKd values
# measured-on: T1, extracellular domain of human BCMA (human, UniProt Q02223 1-54)
# T1 construct: amine-linked to Octet AR2G tips; also called hsBCMA; BCMA (human)
# T1 sequence: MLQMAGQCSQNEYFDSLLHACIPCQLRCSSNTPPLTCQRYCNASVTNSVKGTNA
# measurement-notes: Octet BLI; Fab 200 nM
# log scale: pKd equals minus log10 of the concentration in mol/L

Recorded pKd, per entry:
- binder: "AB200-R1a-Fab_Vk14 (Fab, V domains shown) VH: QVQLVQSGAEVKKPGSSVKVSCKASGGTFSNYWMHWVRQAPGQGLEWMGATYRGHSDTYYNQKFKGRVTITADKSTSTAYMELSSLRSEDTAVYYCARGAIYHGYDVLDNWGQGTLVTVSS VL: DIQMTQSPSSLSASVGDRVTITCSASQDISNYLNWYQQKPGKAPKLLIYYSSNMHSGVPSRFSGSGSGTDFTLTISSLQPEDFATYYCQQFRKLPWTFGQGTKLEIKR"
  pKd: 8.39
- binder: "AB200-R1a-Fab_Vk7 (Fab, V domains shown) VH: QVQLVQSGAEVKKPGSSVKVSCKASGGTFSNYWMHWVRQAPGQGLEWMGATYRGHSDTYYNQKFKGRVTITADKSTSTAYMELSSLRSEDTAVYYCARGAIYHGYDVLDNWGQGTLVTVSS VL: DIQMTQSPSSLSASVGDRVTITCSASQDISNFLNWYQQKPGKAPKLLIYYTSNLHSGVPSRFSGSGSGTDFTLTISSLQPEDFATYYCQQFRKMPWTFGQGTKLEIKR"
  pKd: 7.83
- binder: "AB200-R1a-Fab_Vk3 (Fab, V domains shown) VH: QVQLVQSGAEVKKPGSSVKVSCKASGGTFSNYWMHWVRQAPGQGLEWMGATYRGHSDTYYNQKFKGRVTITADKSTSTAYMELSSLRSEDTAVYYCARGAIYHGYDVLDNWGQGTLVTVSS VL: DIQMTQSPSSLSASVGDRVTITCSASQDISNYINWYQQKPGKAPKLLIYYTSNMHSGVPSRFSGSGSGTDFTLTISSLQPEDFATYYCQQYRKLPWSFGQGTKLEIKR"
  pKd: 8.73

Request: Could you share which pKd value was measured for AB200-R1a-Fab_Vk16 (Fab, V domains shown) VH: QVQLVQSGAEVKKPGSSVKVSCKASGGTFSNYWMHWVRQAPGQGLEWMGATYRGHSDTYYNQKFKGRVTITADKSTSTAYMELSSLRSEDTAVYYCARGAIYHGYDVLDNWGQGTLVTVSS VL: DIQMTQSPSSLSASVGDRVTITCSASQDITNYLNWYQQKPGKAPKLLIYATSNLHSGVPSRFSGSGSGTDFTLTISSLQPEDFATYYCQEYRKLPWTFGQGTKLEIKR ?
Response: 8.50

Request: Could you share which pKd value was measured for AB200-R1a-Fab_Vk34 (Fab, V domains shown) VH: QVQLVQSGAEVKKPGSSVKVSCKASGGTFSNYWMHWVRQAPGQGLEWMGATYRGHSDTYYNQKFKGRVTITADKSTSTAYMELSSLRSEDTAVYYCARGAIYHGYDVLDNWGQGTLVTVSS VL: DIQMTQSPSSLSASVGDRVTITCSASHDISNYLNWYQQKPGKAPKLLIYYTSNLHSGVPSRFSGSGSGTDFTLTISSLQPEDFATYYCHEYRKLPWTFGQGTKLEIKR ?
Response: 7.58

Request: Could you share which pKd value was measured for AB200-R1a-Fab(hCDR2) (Fab, V domains shown) VH: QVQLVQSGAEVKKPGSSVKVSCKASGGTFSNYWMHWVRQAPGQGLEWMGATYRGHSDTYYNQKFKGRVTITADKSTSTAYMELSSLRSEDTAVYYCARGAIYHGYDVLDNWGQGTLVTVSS VL: DIQMTQSPSSLSASVGDRVTITCSASQDISNYLNWYQQKPGKAPKLLIYAASSLQSGVPSRFSGSGSGTDFTLTISSLQPEDFATYYCQQYRKLPWTFGQGTKLEIKR ?
Response: 8.67

Request: Could you share which pKd value was measured for AB200-R1a-Fab_Vk32 (Fab, V domains shown) VH: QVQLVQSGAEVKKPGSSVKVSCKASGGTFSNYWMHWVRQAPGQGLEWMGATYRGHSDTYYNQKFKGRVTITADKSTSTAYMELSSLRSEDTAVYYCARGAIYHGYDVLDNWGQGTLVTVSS VL: DIQMTQSPSSLSASVGDRVTITCSASQDLSNYLNWYQQKPGKAPKLLIYYTSSLHSGVPSRFSGSGSGTDFTLTISSLQPEDFATYYCQQYRKTPWTFGQGTKLEIKR ?
Response: 7.93

Request: Could you share which pKd value was measured for AB200-R1a-Fab_Vk8 (Fab, V domains shown) VH: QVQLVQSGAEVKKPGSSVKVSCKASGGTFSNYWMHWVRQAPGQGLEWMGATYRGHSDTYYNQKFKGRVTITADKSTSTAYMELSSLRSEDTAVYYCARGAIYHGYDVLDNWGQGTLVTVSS VL: DIQMTQSPSSLSASVGDRVTITCSASQDISNYLNWYQQKPGKAPKLLIYYTSNLQSGVPSRFSGSGSGTDFTLTISSLQPEDFATYYCHQSRKLPWTFGQGTKLEIKR ?
Response: 7.62

Request: Could you share which pKd value was measured for AB200-R1a-Fab_Vk21 (Fab, V domains shown) VH: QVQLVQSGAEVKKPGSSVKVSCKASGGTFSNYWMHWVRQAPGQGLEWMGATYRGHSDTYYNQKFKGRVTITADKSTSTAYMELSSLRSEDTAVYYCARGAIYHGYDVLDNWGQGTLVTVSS VL: DIQMTQSPSSLSASVGDRVTITCSASQDISNYLNWYQQKPGKAPKLLIYYTSNLHSGVPSRFSGSGSGTDFTLTISSLQPEDFATYYCHQYKKTPWTFGQGTKLEIKR ?
Response: 7.49
